Experiment: Lipophilicity, logD of compound at pH 7.4
Assay type: physicochemical
Details: buffer
ATTRIBUTE MEASURED: logD
No unit in the answer, please; the number alone is enough.

Query string: Given the compound `CO[C@@H]1CCN(c2nccc(Nc3cc4c(C(C)C)ccc(N5C[C@H](CS(C)(=O)=O)[C@H]5C)c4cn3)n2)C[C@@H]1F` , what is its reported logD?
Result string: 3.8

---

Experiment: Intrinsic clearance in human liver microsomes in presence of NADPH
Type: ADME, Microsome
Field: CLH. Provide a value for each of the compounds that follow.
The reply should contain only the number, in µL/min/mg.

Query string: Given the compound `CO[C@@H]1CCN(c2nccc(Nc3cc4c(C(C)C)ccc(N5C[C@H](CS(C)(=O)=O)[C@H]5C)c4cn3)n2)C[C@@H]1F` , what is its reported CLH?
Result string: 89

Query string: Given the compound `CO[C@@H]1[C@H](O)CN(c2nccc(Nc3cc4c(C(C)C)ccc(N5C[C@H](CS(C)(=O)=O)[C@H]5C)c4cn3)n2)CC1(F)F` , what is its reported CLH?
Result string: 19

Query string: Given the compound `CC(C)c1ccc(N2C[C@H](CS(C)(=O)=O)[C@H]2C)c2cnc(Nc3ccnc(N4CC[C@@H](O)[C@@](C)(F)C4)n3)cc12` , what is its reported CLH?
Result string: 7.2

Query string: Given the compound `CC[C@]1(F)CN(c2nccc(Nc3cc4c(C(C)C)ccc(N5C[C@H](CS(C)(=O)=O)[C@H]5C)c4cn3)n2)CC[C@H]1O` , what is its reported CLH?
Result string: 5.9

Query string: Given the compound `CC(C)c1ccc(N2C[C@H](CS(C)(=O)=O)[C@H]2C)c2cnc(Nc3ccnc(N4CC[C@@](C)(O)[C@@H](F)C4)n3)cc12` , what is its reported CLH?
Result string: 5.1
